Taken from patent US9771352B2.

# Lookup of reported pIC50 keyed by entry
# target: human V2 receptor (Homo sapiens)
# Sequence (P30518 whole entry): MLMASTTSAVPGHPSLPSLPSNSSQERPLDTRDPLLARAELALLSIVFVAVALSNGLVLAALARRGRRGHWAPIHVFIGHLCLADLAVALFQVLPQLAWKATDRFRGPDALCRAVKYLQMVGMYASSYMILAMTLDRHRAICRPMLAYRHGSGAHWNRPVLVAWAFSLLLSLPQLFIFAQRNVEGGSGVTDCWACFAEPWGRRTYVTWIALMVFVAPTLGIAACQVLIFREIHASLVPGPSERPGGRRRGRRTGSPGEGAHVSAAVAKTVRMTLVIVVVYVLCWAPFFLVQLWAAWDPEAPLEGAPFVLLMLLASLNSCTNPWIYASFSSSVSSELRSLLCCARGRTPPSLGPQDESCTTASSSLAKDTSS
# assayComment: Cellular in vitro assay for determining vasopressin receptor activity, V2 receptor cell line (CRE-luciferase)
# studyConditions: CHO cell line transfected with human V2 receptor; [Arg8]-vasopressin at EC50; compounds of the invention (Table 1A); read-out: IC50 hV2
pIC50: −log10 of the molar value.
measurementKind: pIC50

INSERT INTO results (compound, measurementkind, reportedresult) VALUES
  ('CC(O)c1nc(Cn2nc(-c3ccc(Cl)cc3)n(C[C@H](O)C(F)(F)F)c2=O)nn1-c1cccc(F)c1Cl (single isomer, unassigned) [Example 67]', 'pIC50', 8.57),
  ('O=c1n(Cc2nc(CO)n(-c3cccc(F)c3)n2)nc(-c2ccc(Cl)cc2)n1C[C@H](O)C(F)(F)F', 'pIC50', 8.06),
  ('CCc1ccccc1-n1nc(Cn2nc(-c3ccc(Cl)cc3)n(C[C@H](O)C(F)(F)F)c2=O)nc1C(C)O (single isomer, unassigned) [Example 33]', 'pIC50', 8.64);

----------
# target: human V1a receptor (Homo sapiens, UniProt P37288)
# Sequence (P37288 whole entry): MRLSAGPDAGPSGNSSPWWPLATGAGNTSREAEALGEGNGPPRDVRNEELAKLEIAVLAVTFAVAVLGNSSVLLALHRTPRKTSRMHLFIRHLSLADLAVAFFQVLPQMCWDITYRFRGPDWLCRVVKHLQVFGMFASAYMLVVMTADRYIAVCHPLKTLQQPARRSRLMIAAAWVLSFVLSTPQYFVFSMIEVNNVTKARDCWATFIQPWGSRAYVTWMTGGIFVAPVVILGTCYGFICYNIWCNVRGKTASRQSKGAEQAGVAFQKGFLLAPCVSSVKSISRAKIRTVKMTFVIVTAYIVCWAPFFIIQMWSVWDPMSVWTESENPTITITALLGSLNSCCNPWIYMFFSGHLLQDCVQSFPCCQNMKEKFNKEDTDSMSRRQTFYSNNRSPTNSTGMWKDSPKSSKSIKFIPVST
# assayComment: Cellular in vitro assay for determining vasopressin receptor activity, V1a receptor cell line (photoprotein luminescence)
# studyConditions: CHO cell line transfected with human V1a receptor; [Arg8]-vasopressin at EC50; compounds of the invention (Table 1A); read-out: IC50 hV1a
pIC50: −log10 of the molar value.
measurementKind: pIC50

INSERT INTO assay_data (compound, reportedresult) VALUES
  ('CC(O)c1nc(Cn2nc(-c3ccc(Cl)cc3)n(C[C@H](O)C(F)(F)F)c2=O)nn1-c1cc(F)cc(Cl)c1 (single isomer, unassigned) [Example 15]', 7.42),
  ('CC(O)c1nc(Cn2nc(-c3ccc(Cl)cc3)n(C[C@H](O)C(F)(F)F)c2=O)nn1-c1cccc(C(F)F)c1 (mixture of isomers) [Example 19]', 7.91),
  ('CC(O)c1nc(Cn2nc(-c3ccc(Cl)cc3)n(C[C@H](O)C(F)(F)F)c2=O)nn1-c1cccc(Cl)c1Cl (mixture of isomers) [Example 61]', 8.49),
  ('C[C@@H](O)c1nc(Cn2nc(-c3ccc(Cl)cc3)n(C[C@H](O)C(F)(F)F)c2=O)nn1-c1ccccc1Cl', 9.00),
  ('CC(O)c1nc(Cn2nc(-c3ccc(Cl)cc3)n(C[C@H](O)C(F)(F)F)c2=O)nn1-c1cccc(F)c1F (single isomer, unassigned) [Example 65]', 8.60),
  ('Cc1ccccc1-n1nc(Cn2nc(-c3ccc(Cl)cc3)n(C[C@H](O)C(F)(F)F)c2=O)nc1C(C)O (single isomer, unassigned) [Example 70]', 9.30);

----------
# System: conscious rats
# assayComment: Diuresis investigations in conscious rats kept in metabolism cages
# Assay type: in vivo, Wistar rats
# studyConditions: Rattus norvegicus, po, dosage p.o. 3.0 mg/kg (Table 2A), read-out: Urinary volume
Reported response vs control in vivo at 3 mg/kg values for the following molecules.
measurementKind: response vs control in vivo at 3 mg/kg (%)

INSERT INTO measurements (molecule, units, reportedresult) VALUES
  ('C[C@H](O)c1nc(Cn2nc(-c3ccc(Cl)cc3)n(C[C@H](O)C(F)(F)F)c2=O)nn1-c1ccccc1Cl', '%', 828),
  ('O=c1n(Cc2nc(CO)n(-c3cccc(Cl)c3)n2)nc(-c2ccc(Cl)cc2)n1C[C@H](O)C(F)(F)F', '%', 588),
  ('COc1ccccc1-n1nc(Cn2nc(-c3ccc(Cl)cc3)n(C[C@H](O)C(F)(F)F)c2=O)nc1CO', '%', 450),
  ('O=c1n(Cc2nc(CO)n(-c3cccc(F)c3)n2)nc(-c2ccc(Cl)cc2)n1C[C@H](O)C(F)(F)F', '%', 588),
  ('Cc1ccccc1-n1nc(Cn2nc(-c3ccc(Cl)cc3)n(C[C@H](O)C(F)(F)F)c2=O)nc1C(C)O (single isomer, unassigned)', '%', 595);
